Tested on: TRPC4 (mouse), co-expressed with 5HT1a in HEK293
TEST_METHOD_NOTES: enhancement of serotonin-evoked TRPC4 response – cell-based, second counter screen, HEK293 TRPC4/5HT1a, Fluo-4, counter-screen for TRPC4 potentiator project, confirmation (AID 434979)
CONDITION_INFO: Fluo-4 calcium flux, at 10 µM, serotonin added at its EC20 dose
The source made the active and inactive calls.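 The calls were made as follows: active = signal rise over 3 SD above mean of control wells given weak agonist, in both repeats and first screen; inactive = the rest.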
Log the outcome using a class from active, inactive

Field: example entries. Status: answers known.
# QUERY_SMILES, ASSIGNED_CATEGORY
rows = [
    ("Cc1cc([N+](=O)[O-])ccc1NCc1ccccc1", "inactive"),
    ("O=C(COc1ccccc1)NC1CCCCCCC1", "active"),
    ("COc1cc2c(C(=O)N3CCN(C)CC3)c(CSc3ccccc3)n(C)c2cc1Br", "active"),
    ("Cc1cccc2nc(CSc3ccc(Cl)cc3)cn12", "inactive"),
    ("CCn1c(NCc2ccco2)nc2ccccc21", "active"),
]

Qu. I would be grateful if you could indicate the recorded call for CCn1c(/C=C/Nc2ccccc2)[n+](CC)c2ccc(Cl)cc21 .
Ans. inactive

----------
Test system: TRPC4 (transient receptor potential cation channel C4 beta), mouse
TEST_METHOD_NOTES: potentiation of DAMGO EC20 TRPC4 response – cell-based, second round, Fluo-4, HEK293 TRPC4beta/mu-opioid, 1 µM, confirmation (AID 2554)
CONDITION_INFO: DAMGO EC20, Fluo-4 calcium flux, at 1 µM
Activity calls are given as the source filed them.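 The calls were made as follows: active = primary screen hit whose fluorescence ratio, in both repeats, exceeds the weak agonist control mean by 3 SD; inactive = the rest.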
Log the outcome using a class from active, inactive

# MOLECULE, ASSIGNED_CATEGORY
records = [
    ("Cn1c(-c2ccc(F)cc2)cnc1NCc1ccc(F)cc1", "inactive"),
    ("O=C(Nc1cccc(Cl)c1)N1CCN(C/C=C/c2ccccc2)CC1", "inactive"),
    ("Cc1cc(OCC(=O)NC2CCCCC2)ccc1Cl", "inactive"),
    ("COc1ccc(C(CNc2ncnc3sc(C)c(C)c23)N(C)C)cc1 (configuration not stated)", "inactive"),
    ("CCCN(c1nc(C)cc(OC)n1)S(=O)(=O)c1ccccc1", "inactive"),
]

Qu. I would be grateful if you could indicate the recorded call for Cc1cccc2cc(CN(CCCN(C)C)C(=S)NCCc3ccccc3)c(=O)[nH]c12 .
Ans. inactive

Qu. I would be grateful if you could indicate the recorded call for CNc1nc(N2CCc3ccccc32)ncc1F .
Ans. active

Qu. I would be grateful if you could indicate the recorded call for Cc1cccc(NC(=S)NCC(c2ccccc2)N(C)C)c1 (configuration not stated) .
Ans. inactive

Qu. I would be grateful if you could indicate the recorded call for CCOC(=O)c1ccc(NC(=O)NCCc2cnc[nH]2)cc1 .
Ans. inactive

Qu. I would be grateful if you could indicate the recorded call for Cc1ccc(C(C)C)cc1OCCCCN1CCCC1 .
Ans. active

Qu. I would be grateful if you could indicate the recorded call for COc1ccc(C(CNC(=O)c2cc(C)on2)N(C)C)cc1 (configuration not stated) .
Ans. inactive

Qu. I would be grateful if you could indicate the recorded call for CN(CC(=O)NC1CCCc2ccccc21)C1CCCCC1 (configuration not stated) .
Ans. inactive

----------
TEST_METHOD_NOTES: serotonin-gated TRPC4 signal block – cell-based, second counter screen, HEK293 TRPC4/5HT1a, Fluo-4, counter-screen for TRPC4 inhibitor project, confirmation (AID 434978);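 as to outcome: serotonin given first at submaximal then at maximal dose after compound preincubation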
CONDITION_INFO: Fluo-4 calcium flux, at 10 µM, serotonin added to trigger calcium flux
Active and inactive are the calls of the source.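 The calls were made as follows: active = primary screen active whose calcium signal fell more than 3 SD beyond the full-serotonin control mean in both duplicate plates; inactive = the rest.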
Log the outcome using a class from true (1) = active, false (0) = inactive

# MOLECULE, ASSIGNED_CATEGORY
measured = [
    ("Cc1ccc(CSc2nc(-c3ccccc3)c(C#N)c(=O)[nH]2)cc1", "true (1)"),
]

Qu. I would be grateful if you could indicate the recorded call for CCc1ccc(/C=C2/SC(=S)N(CCCC(=O)Nc3ccccc3C(=O)O)C2=O)cc1 .
Ans. true (1)

Qu. I would be grateful if you could indicate the recorded call for CCOC(=O)C1(CC2CC2)CCN(Cc2cc(Cl)c(O)c(OC)c2)CC1 .
Ans. false (0)

Qu. I would be grateful if you could indicate the recorded call for CNCCOc1ccc(Cl)c(Cl)c1 .
Ans. false (0)

Qu. I would be grateful if you could indicate the recorded call for CC(C)Oc1ccc(CCC(=O)NNC(=S)NCc2ccccc2)cc1 .
Ans. false (0)

Qu. I would be grateful if you could indicate the recorded call for CCCN1CCC(NC(=O)Cc2cccc(C)c2)CC1 .
Ans. false (0)

Qu. I would be grateful if you could indicate the recorded call for Oc1cccc(C(=S)N2CCN(Cc3ccccc3)CC2)c1 .
Ans. false (0)

Qu. I would be grateful if you could indicate the recorded call for CCn1c(C2CC(=O)N(Cc3ccccc3)C2)nc2ccccc21 (configuration not stated) .
Ans. false (0)

Qu. I would be grateful if you could indicate the recorded call for N=c1c2c(n(Cc3ccccc3)c3c1CCC3)CCC2 .
Ans. true (1)

Qu. I would be grateful if you could indicate the recorded call for O=Cc1cc(N=Nc2ccccc2Cl)ccc1O .
Ans. true (1)

Qu. I would be grateful if you could indicate the recorded call for CCN1CCCC1CNS(=O)(=O)c1c(C)cc(C)cc1C (configuration not stated) .
Ans. false (0)

Qu. I would be grateful if you could indicate the recorded call for COc1ccc(CSCCN)cc1Cl .
Ans. false (0)

Data origin: PubChem BioAssay
